test target: human CD28 (human, UniProt P10747 19-220)
assay procedure: cell-based or functional assay
endpoint label: Luciferase assay (EC50) (nM)
Give a bare numeral; the unit nM is implied.

Luciferase assay (EC50) measured on 1h-79-22 (other) VL: DIQMTQSPSSLSASVGDRVTITCRASQPIGHSLAWYQQKPGKAPKLLIYWASMLQSGVPSRFSGSGSGTDFTLTISSLQPEDFATYYCQQMLRTPFSFGQGTKVEIKR = 750

Others:
Luciferase assay (EC50) measured on 1h-99-2115 (other) VH: EVQLLESGGGLVQPGGSLRLSCAASGFTFKDKNMSWVRQAPGKGLEWVSWIEAPGVQTFYADSVRGRFTISRDNSKNTLYLQMNSLRAEDTAVYYCARSPFGPLYGFDYRGQGTLVTVSS = 3

Luciferase assay (EC50) measured on 1h-86 (other) VL: DIQMTQSPSSLSASVGDRVTITCRASQDIGQSLVWYQQKPGKAPKLLIYWASMLQSGVPSRFSGSGSGTDFTLTISSLQPEDFATYYCQQVMRRPFTFGQGTKVEIKR = 400

Luciferase assay (EC50) measured on 1h-79-1512 (other) VL: DIQMTQSPSSLSASVGDRVTITCRASQPIGHSLGWYQQKPGKAPKLLIYWASVLLHGVPSRFSGSGSGTDFTLTISSLQPEDFATYYCQQMLRTPFTFGQGTKVEIKR = 19
